Assay: gradient 5% acetonitrile 3 min, to 50% in 2 min, to 85% in 15 min, held 3 min, 100 µL/min
Conditions: column: Zorbax Extend-C18 2.1 x 50 mm; eluents: water / acetonitrile, 0.1% formic acid
REPORTED_METRIC: RP-LC retention time (s)

# annotated cases, reported RP-LC retention time shown
RP-LC retention time for COCCCNC(=O)NCc1ccc2c(c1)N(C(=O)c1ccccc1)CC2 is 742

Field RP-LC retention time (entry Clc1nc(NCCc2ccccc2)c2cn[nH]c2n1 ) reads 827

RP-LC retention time reported for this molecule COc1ccc(-c2cc3nn(CC(=O)Nc4ccc(Cl)cc4)c(=O)n3c(C)n2)cc1 : 974

get_value(item= O=C(Cc1ccccc1Br)N1CCN(Cc2nncn2C2CCCCC2)CC1 , readout=RP-LC retention time) returns 642

Item: CN1CCCc2cc(C(=O)N3CCC4(CC3)OCCO4)sc21 | RP-LC retention time: 796

(A) COCC1CN(Cc2cn[nH]c2-c2ccc(F)cc2)CCC1(F)F (stereo not given)
(B) COc1ccc(-c2noc(CSc3nc4cc5c(cc4c(=O)n3CC3CCCO3)OCO5)n2)cc1 (stereo not given)
Short answer wanted: higher RP-LC retention time, A or B ? Kindly give the label for the entry you pick.
B

----------
Experiment: gradient 5% acetonitrile 3 min, to 50% in 2 min, to 85% in 15 min, held 3 min, 100 µL/min
Conditions: column: Zorbax Extend-C18 2.1 x 50 mm; eluents: water / acetonitrile, 0.1% formic acid
REPORTED_METRIC: RP-LC retention time (s)

Input O=C(NCc1ccc(N2CCOCC2)nc1)c1ccc(Cl)s1 . Output RP-LC retention time: 618

RP-LC retention time reported for this molecule Cn1cc(S(=O)(=O)N2CCCCC2)cc1C(=O)N1CCN(c2cccc(Cl)c2)CC1 : 1050

Input Cc1cccc2c(=O)n(C3CCN(S(=O)(=O)c4ccc(C(C)C)cc4)CC3)cnc12 . Output RP-LC retention time: 1120

(I) O=C(Nc1ccc2nc(N3CCCN(c4ncccn4)CC3)cc(C(=O)O)c2c1)c1ccc(F)cc1
(II) CSc1ccc(-c2noc(Cn3c(=O)n(-c4ccccc4)c(=O)c4sccc43)n2)cc1
Select one. Lower RP-LC retention time: I or II Reply briefly: the label of your chosen item.
I
(I: 616 s, II: 1020 s)

(a) CN1C(=O)CCC2(CNC(=O)NCCc3ccccc3)CCCC=C12 (stereo not drawn)
(b) FC(F)(F)c1cnc(N2CCN(c3ccccc3)CC2)c(Cl)c1
Of the two listed items, which has the higher RP-LC retention time? First: a Second: b To answer, give the label that identifies your chosen option.
b

----------
Assay: gradient 5% acetonitrile 3 min, to 50% in 2 min, to 85% in 15 min, held 3 min, 100 µL/min
Conditions: column: Zorbax Extend-C18 2.1 x 50 mm; eluents: water / acetonitrile, 0.1% formic acid
REPORTED_METRIC: RP-LC retention time (s)

Please review the following examples before continuing.
The reported RP-LC retention time of the molecule Cc1nn(-c2ccc(N3CCOCC3)nn2)c(C)c1CCC(=O)NCCCc1ccco1 was 692

Value of RP-LC retention time reported for the molecule CC(C)c1noc(-c2cc(=O)n(CC(=O)NCc3cccs3)c3ccccc23)n1 is 933

So, CCC(=O)N1CCOc2ccc(NC(=O)C3CC3)cc2C1 ? Its RP-LC retention time was 674

Lab note: measured RP-LC retention time of COc1ncc(C(=O)NCCc2ccc(S(N)(=O)=O)cc2)cn1 was 608

Per the records, this molecule ( O=C1NCCOCCN(S(=O)(=O)c2cccc3cccnc23)[C@@H]2CCCC[C@H]12 ) has RP-LC retention time equal to 735

(P) CCN1CCCC1CN(CC(=O)N1CCNCC1)S(=O)(=O)c1ccc(Br)cc1 (centres undefined)
(Q) CCN1C(=O)C2(CCN(S(=O)(=O)c3ccc(C(F)(F)F)cc3)CC2)c2ccccc21
// pick min by RP-LC retention time: P , Q Returns: label corresponding to the selected item.
P
(P: 583 s, Q: 1130 s)

(a) Cc1ccc(C)c(NC(=O)Cn2c(=O)n(-c3ccccc3)c3ncccc32)c1
(b) CN(C)c1ccc(-c2nnc3sc(-c4ccc5ccccc5n4)nn23)cc1
Given a and b , report the one with the higher recorded RP-LC retention time. // respond with label for picked entry
b
(b: 1360 s, a: 852 s)

Ref: the METLIN SMRT retention time set (Domingo-Almenara et al. 2019)
